Entries and their measured GFP response vs DMSO follow.
# procedureDetails: RPL19A-GFP modulators, yeast TOR pathway, confirmation, cell-based, S. cerevisiae, flow cytometry, cherry picks, mother/daughter gates (AID 2270)
# conditionDetails: S. cerevisiae RPL19A-GFP strain, 3 h, measured here: mother cell gate, at 10 µM, stronger effect = lower value, 100 = same GFP as DMSO wells
recordedMetric: GFP response vs DMSO (%)

[
  {
    "testSmiles": "CC(C)n1c(=S)[nH]c2c1c(=O)[nH]c(=O)n2C",
    "recordedMetric": "GFP response vs DMSO",
    "numericReadout": 99.8
  },
  {
    "testSmiles": "CCOc1ccc(S(=O)(=O)N2CCc3ccccc3C2)cc1",
    "recordedMetric": "GFP response vs DMSO",
    "numericReadout": 100
  },
  {
    "testSmiles": "COc1ccc(/C=C2\\Sc3ccc(C(=O)N4CCc5ccccc5C4)cc3N(C)C2=O)cc1",
    "recordedMetric": "GFP response vs DMSO",
    "numericReadout": 99.5
  },
  {
    "testSmiles": "Cc1ccc(/C(C#N)=C\\c2ccc(N3CCOCC3)o2)cc1",
    "recordedMetric": "GFP response vs DMSO",
    "numericReadout": 98
  },
  {
    "testSmiles": "N#C/C(=C\\c1cccc(Oc2ccccc2)c1)C(=O)N1CCOCC1",
    "recordedMetric": "GFP response vs DMSO",
    "numericReadout": 95.1
  },
  {
    "testSmiles": "CCc1ccc(CNC(=O)CCC(=O)N2Cc3cccc(OC)c3Oc3ncccc32)cc1",
    "recordedMetric": "GFP response vs DMSO",
    "numericReadout": 99.9
  },
  {
    "testSmiles": "CC1=NNC(=O)/C1=C\\c1cn(-c2ccccc2)nc1-c1ccc(Cl)cc1",
    "recordedMetric": "GFP response vs DMSO",
    "numericReadout": 98.5
  },
  {
    "testSmiles": "Cc1cc(O)c(C(=O)/C=C/c2cccc([N+](=O)[O-])c2)c(=O)o1",
    "recordedMetric": "GFP response vs DMSO",
    "numericReadout": 95.8
  },
  {
    "testSmiles": "CCC(=O)Oc1oc(-c2ccccc2)nc1C=Nc1ccc(C)cc1",
    "recordedMetric": "GFP response vs DMSO",
    "numericReadout": 103
  },
  {
    "testSmiles": "Cn1c(N2CCCC2)nc2c1c(=O)n(Cc1ccc(Cl)cc1)c(=O)n2C",
    "recordedMetric": "GFP response vs DMSO",
    "numericReadout": 87.5
  }
]

====

# procedureDetails: yeast TOR pathway RPL19A-GFP modulators, primary screen, cell-based, S. cerevisiae, multiplex flow cytometry (AID 1862);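 note: lower values mimic rapamycin by blocking the RPL19A rise seen in DMSO cells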
# conditionDetails: S. cerevisiae RPL19A-GFP strain, flow cytometry fluorescence, 3 h; at 10 µM; stronger effect = lower value
Records with an inconclusive call do not appear.
recordedMetric: percent of DMSO control GFP (%)

[
  {
    "testSmiles": "COC(=O)c1[nH]c2ccccc2c1NC(=O)CN1CCN(C/C=C/c2ccccc2)CC1",
    "numericReadout": 108
  },
  {
    "testSmiles": "COc1ccc(C(=O)Nc2ccccc2C(=O)NCCCn2ccnc2)cc1",
    "numericReadout": 91.3
  },
  {
    "testSmiles": "C[N+](C)(C)CCOP(=O)(O)OP(=O)([O-])OC[C@H]1O[C@@H](n2ccc(N)nc2=O)[C@H](O)[C@@H]1O",
    "numericReadout": 101
  },
  {
    "testSmiles": "COc1ccc2oc(=O)c(C(=O)N3CCN(c4ccccc4)CC3)cc2c1",
    "numericReadout": 97.8
  },
  {
    "testSmiles": "O=C1N=c2ccccc2=C1c1[nH]c(=S)[nH]c1O",
    "numericReadout": 98.8
  },
  {
    "testSmiles": "Cc1ccc(NCCC(=O)c2ccccc2)cc1Cl",
    "numericReadout": 86.2
  }
]
